So I've got pKi readings for Bcl-b (Homo sapiens), take a look.
# log scale: pKi equals minus log10 of the concentration in mol/L

>>> meas_value("Cc1ccc(S(=O)(=O)N(Cc2ccc(F)cc2)Cc2cc(CNS(=O)(=O)c3cc(Cl)cc(Cl)c3O)cc(-c3ccc(F)cc3)c2)cc1 [Example 13]")
7.05

Please state recorded pKi (tested on Bcl-b (Homo sapiens)) of O=C(NCc1cccc(CN(Cc2ccc(F)cc2)S(=O)(=O)c2cc(Cl)cc(Cl)c2O)c1)c1cc(O)nc(O)c1 [Example 2] 7.30

Please state recorded pKi (tested on Bcl-b (Homo sapiens)) of Cc1ccc(S(=O)(=O)N(Cc2cc(CN(Cc3ccc(F)cc3)S(=O)(=O)c3cc(Cl)cc(Cl)c3O)cc(Oc3ccc(F)cc3)c2)CC(C)C)cc1 [Example 8] 7.00

Please state recorded pKi (tested on Bcl-b (Homo sapiens)) of CC(C)CN(Cc1cc(Cl)cc(CN(CC(C)C)S(=O)(=O)c2cc(Cl)cc(Cl)c2O)c1)C(=O)c1cccc(SC(F)(F)F)c1 [Example 72] 6.74

Please state recorded pKi (tested on Bcl-b (Homo sapiens)) of COc1ccc(S(N)(=O)=O)cc1C(=O)NCc1cccc(CN(Cc2ccc(-c3ccccc3)cc2)S(=O)(=O)c2cc(Cl)cc(Cl)c2O)c1 [Example 39] 6.54

Please state recorded pKi (tested on Bcl-b (Homo sapiens)) of O=S(=O)(c1cc(Cl)cc(Cl)c1O)N(Cc1ccc(Cl)cc1)Cc1cccc(-c2ccc(Cl)cc2)n1 [Example 274] 6.35

Please state recorded pKi (tested on Bcl-b (Homo sapiens)) of CCCCNC(=O)c1ccc(CN(Cc2ccc(F)cc2)S(=O)(=O)c2cc(Cl)cc(Cl)c2O)cc1 [Example 138] 6.35

These measurements were taken from patent US8501992B2.
